# protocol-notes: amyloid nucleation score (Sup35N fusion, yeast selection) (log enrichment); library NNK1; higher = more nucleation; inactive = no reads after selection;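 note: zero at mode of non-aggregating sequences after 7 days selection at 30°C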
Kind request: treat 0.1 as inclusive, so amyloid nucleation score at 0.1 or higher is true, anything lower is false.

Prompt: Tell me whether amyloid nucleation score is at least 0.1 here: CCLEWRWLRMEDDPVNGEDV
Response: false

Prompt: Tell me whether amyloid nucleation score is at least 0.1 here: PLCLNRVMISAMGVRVR
Response: false

Prompt: Tell me whether amyloid nucleation score is at least 0.1 here: ALLGFRSCMQASFFFFRWFI
Response: false

Prompt: Tell me whether amyloid nucleation score is at least 0.1 here: KADIFYSLCFLRVEG
Response: false

Prompt: Tell me whether amyloid nucleation score is at least 0.1 here: RSGSLCGFLREKKVRNTFWV
Response: false

Prompt: Tell me whether amyloid nucleation score is at least 0.1 here: VWMLTMSAFKVYWLNFINYA
Response: false

Prompt: Tell me whether amyloid nucleation score is at least 0.1 here: WKGMMQFDMSHSCVYWWKCA
Response: true

Prompt: Tell me whether amyloid nucleation score is at least 0.1 here: LLASAIHLNRTADAMKEYYP
Response: false

Prompt: Tell me whether amyloid nucleation score is at least 0.1 here: CFPFIFRIGFTNNGADSLVK
Response: false

Prompt: Tell me whether amyloid nucleation score is at least 0.1 here: WFGTHCVLSYVSTFWSLQSV
Response: false

Prompt: Tell me whether amyloid nucleation score is at least 0.1 here: VGSSLDMPAPKRVGSEYCSV
Response: true

Prompt: Tell me whether amyloid nucleation score is at least 0.1 here: GWSNSFA
Response: true

Prompt: Tell me whether amyloid nucleation score is at least 0.1 here: MFCLALECEVHLGMHYYNHA
Response: true

Prompt: Tell me whether amyloid nucleation score is at least 0.1 here: WVTQVDWSGRR
Response: false

Prompt: Tell me whether amyloid nucleation score is at least 0.1 here: WLLMSCTHCSCLKMRIHWKG
Response: false

Prompt: Tell me whether amyloid nucleation score is at least 0.1 here: LTEDMNYFAY
Response: true

Prompt: Tell me whether amyloid nucleation score is at least 0.1 here: MLVNSM
Response: true

Prompt: Tell me whether amyloid nucleation score is at least 0.1 here: PNAVCGQWFEDQL
Response: false

Prompt: Tell me whether amyloid nucleation score is at least 0.1 here: PRDASWRTFVAKA
Response: false

Prompt: Tell me whether amyloid nucleation score is at least 0.1 here: LSCYLYALVKGLGLRVGHIK
Response: true

Prompt: Tell me whether amyloid nucleation score is at least 0.1 here: SLYCNGVRMPLAETSGNEHL
Response: false

Prompt: Tell me whether amyloid nucleation score is at least 0.1 here: SSTAEDTMWARGSNKTLYQS
Response: true

Prompt: Tell me whether amyloid nucleation score is at least 0.1 here: VSNTSLYPDKESMLRGTEWE
Response: true

Prompt: Tell me whether amyloid nucleation score is at least 0.1 here: YCCGDTPTFCSLKFIMS
Response: true

Prompt: Tell me whether amyloid nucleation score is at least 0.1 here: RSSSYNSLIRKISDKLVGAA
Response: true

Prompt: Tell me whether amyloid nucleation score is at least 0.1 here: NAIGILRHLTRMFPFD
Response: true

Prompt: Tell me whether amyloid nucleation score is at least 0.1 here: VKRGHNGGSAITISLDLYLF
Response: true

Prompt: Tell me whether amyloid nucleation score is at least 0.1 here: NKSCDGVRLCREARKALEPC
Response: true

Prompt: Tell me whether amyloid nucleation score is at least 0.1 here: TIFLQALGYSRWLLEISMDR
Response: false

Prompt: Tell me whether amyloid nucleation score is at least 0.1 here: RRARFFFRGYY
Response: true

Prompt: Tell me whether amyloid nucleation score is at least 0.1 here: NFRLEYDLCVGLTSSHIGGL
Response: false

----------
# protocol-notes: amyloid nucleation score (Sup35N fusion, yeast selection) (log enrichment); library NNK3; higher = more nucleation; inactive = no reads after selection
parameter: amyloid nucleation score

Worked set:
Prompt: Requested field: amyloid nucleation score. Item: DSVVRTSQMSVGYMCVRAEF
Response: inactive

Prompt: Requested field: amyloid nucleation score. Item: GFSTYRIKIVYDVNMY
Response: inactive

Prompt: Requested field: amyloid nucleation score. Item: YLVFNQY
Response: 1.17

Prompt: Requested field: amyloid nucleation score. Item: KYANILSFTPFNQQSI
Response: inactive

More entries:
Prompt: Requested field: amyloid nucleation score. Item: IHLIVWGPSSTLVMVFMEVM
Response: inactive

Prompt: Requested field: amyloid nucleation score. Item: FCFSYSYAYFCHIYGCGSNR
Response: -0.281

Prompt: Requested field: amyloid nucleation score. Item: CLPVARGQMR
Response: inactive

----------
# protocol-notes: amyloid nucleation score (Sup35N fusion, yeast selection) (log enrichment); library NNK2; higher = more nucleation; inactive = no reads after selection
For each record, write down the corresponding amyloid nucleation score.
Note: the reply should be a number with no unit written.

Prompt: Requested field: amyloid nucleation score. Item: VFLSGINH
Response: -1.18

Prompt: Requested field: amyloid nucleation score. Item: PSSVKWTRSPGMRTTNGEVC
Response: 1.36

Prompt: Requested field: amyloid nucleation score. Item: CYSYWPRSPFIWY
Response: -0.978

Prompt: Requested field: amyloid nucleation score. Item: QYLLIIMFRYYLYCGVQRNY
Response: -0.121

Prompt: Requested field: amyloid nucleation score. Item: MIYSVMFNVNGACTYNCRII
Response: 7.48

Prompt: Requested field: amyloid nucleation score. Item: PVIRRLEFGWQNASYG
Response: -0.564

Prompt: Requested field: amyloid nucleation score. Item: NLDDYPG
Response: 1.66

Prompt: Requested field: amyloid nucleation score. Item: SYVVPGFISASFYLCYCTSK
Response: 3.03

Prompt: Requested field: amyloid nucleation score. Item: FWSRKCSFCFNGASVSGEVM
Response: -0.088

----------
# protocol-notes: amyloid nucleation score (Sup35N fusion, yeast selection) (log enrichment); library NNK3; higher = more nucleation; inactive = no reads after selection
parameter: amyloid nucleation score

Worked set:
Prompt: Requested field: amyloid nucleation score. Item: KSICELVIRRNFVSLNIATY
Response: -0.336

Prompt: Requested field: amyloid nucleation score. Item: GSPVRWRGPGFTSPRLTRA
Response: 0.766

Prompt: Requested field: amyloid nucleation score. Item: LYGTFVNSCQRFNLLDV
Response: inactive

Prompt: Requested field: amyloid nucleation score. Item: RIKFNHTAFNWFQIF
Response: 1.69

Prompt: Requested field: amyloid nucleation score. Item: VKRADNSSSALRWYLNMYNL
Response: inactive

Prompt: Requested field: amyloid nucleation score. Item: PNSLRRCVSRLVPRGLPRKR
Response: inactive

Prompt: Requested field: amyloid nucleation score. Item: ISSRGSMTRL
Response: inactive

Prompt: Requested field: amyloid nucleation score. Item: ETNEGPH
Response: inactive

More entries:
Prompt: Requested field: amyloid nucleation score. Item: IQDLEASRFGSIVIALDNCS
Response: inactive
